Test system: FMOC03 (patient-derived mucinous ovarian cancer cells)
Assay Overview: drug sensitivity score (DSS3, normalised partial AUC of % inhibition dose-response) (DSS (score)); higher = more sensitive (stronger inhibition of viability); extreme values may be limits of the assay
Recorded Conditions: 72 h; library: FO5A; assay format: 2D, 384-well, CellTiter-Glo
drug sensitivity score for assorted compounds
Provide a numeric answer; units are not to be included.

Entry C[C@@H](C(=O)O)c1ccc(-c2ccccc2)c(F)c1 [Tarenflurbil] needs its drug sensitivity score filled in; supply it. 0

Entry Nc1ncnc2c1nc(Cl)n2[C@@H]1O[C@H](CO)[C@@H](O)[C@H]1O [8-chloro-adenosine] needs its drug sensitivity score filled in; supply it. 2.4

Next:
Entry C[C@H]1CN(C2COC2)CCN1c1ccc(Nc2cc(-c3ccnc(N4CCn5c(cc6c5CC(C)(C)C6)C4=O)c3CO)cn(C)c2=O)nc1 [GDC-0853] needs its drug sensitivity score filled in; supply it. 0

Entry Cc1cc(-c2nc(-c3ccc(OC(F)(F)F)cc3)no2)nn1Cc1ccnc(N2CCN(C3CC3)CC2)c1 [BAY 87-2243] needs its drug sensitivity score filled in; supply it. 6.4
